All figures here come from patent US7511076B2.

System: Bacillus subtilis Strain IS75
Assay Procedure: Bactericidal effect of ANSA derivatives on B. subtilis cultures (CFU count)
Assay type: cell-based
Condition Label: 20 μg/ml ANSA, 30 minutes, room temperature, Spizizen's minimal media; start 10^7 CFU ml^−1; *NO and/or PTIO 20 μM where indicated
Measured Parameter: CFU, B. subtilis, minimal media

INSERT INTO measurements (smiles, measured_parameter, result) VALUES
  ('CCCCCNS(=O)(=O)c1cccc2c(NC)cccc12', 'CFU, B. subtilis, minimal media', '≈10^7 CFU ml^−1'),
  ('CCCCCNS(=O)(=O)c1cccc2c(N)cccc12', 'CFU, B. subtilis, minimal media', '10^2 CFU ml^−1'),
  ('CNS(=O)(=O)c1cccc2c(N)cccc12', 'CFU, B. subtilis, minimal media', '≈10^7 CFU ml^−1');

* * *

Measured Target: RNA polymerase from E. coli (RNAP) (Escherichia coli, UniProt P0A7Z4+P0A8T7+P0A8V2)
Construct: made in house
Sequence (P0A8V2 whole entry): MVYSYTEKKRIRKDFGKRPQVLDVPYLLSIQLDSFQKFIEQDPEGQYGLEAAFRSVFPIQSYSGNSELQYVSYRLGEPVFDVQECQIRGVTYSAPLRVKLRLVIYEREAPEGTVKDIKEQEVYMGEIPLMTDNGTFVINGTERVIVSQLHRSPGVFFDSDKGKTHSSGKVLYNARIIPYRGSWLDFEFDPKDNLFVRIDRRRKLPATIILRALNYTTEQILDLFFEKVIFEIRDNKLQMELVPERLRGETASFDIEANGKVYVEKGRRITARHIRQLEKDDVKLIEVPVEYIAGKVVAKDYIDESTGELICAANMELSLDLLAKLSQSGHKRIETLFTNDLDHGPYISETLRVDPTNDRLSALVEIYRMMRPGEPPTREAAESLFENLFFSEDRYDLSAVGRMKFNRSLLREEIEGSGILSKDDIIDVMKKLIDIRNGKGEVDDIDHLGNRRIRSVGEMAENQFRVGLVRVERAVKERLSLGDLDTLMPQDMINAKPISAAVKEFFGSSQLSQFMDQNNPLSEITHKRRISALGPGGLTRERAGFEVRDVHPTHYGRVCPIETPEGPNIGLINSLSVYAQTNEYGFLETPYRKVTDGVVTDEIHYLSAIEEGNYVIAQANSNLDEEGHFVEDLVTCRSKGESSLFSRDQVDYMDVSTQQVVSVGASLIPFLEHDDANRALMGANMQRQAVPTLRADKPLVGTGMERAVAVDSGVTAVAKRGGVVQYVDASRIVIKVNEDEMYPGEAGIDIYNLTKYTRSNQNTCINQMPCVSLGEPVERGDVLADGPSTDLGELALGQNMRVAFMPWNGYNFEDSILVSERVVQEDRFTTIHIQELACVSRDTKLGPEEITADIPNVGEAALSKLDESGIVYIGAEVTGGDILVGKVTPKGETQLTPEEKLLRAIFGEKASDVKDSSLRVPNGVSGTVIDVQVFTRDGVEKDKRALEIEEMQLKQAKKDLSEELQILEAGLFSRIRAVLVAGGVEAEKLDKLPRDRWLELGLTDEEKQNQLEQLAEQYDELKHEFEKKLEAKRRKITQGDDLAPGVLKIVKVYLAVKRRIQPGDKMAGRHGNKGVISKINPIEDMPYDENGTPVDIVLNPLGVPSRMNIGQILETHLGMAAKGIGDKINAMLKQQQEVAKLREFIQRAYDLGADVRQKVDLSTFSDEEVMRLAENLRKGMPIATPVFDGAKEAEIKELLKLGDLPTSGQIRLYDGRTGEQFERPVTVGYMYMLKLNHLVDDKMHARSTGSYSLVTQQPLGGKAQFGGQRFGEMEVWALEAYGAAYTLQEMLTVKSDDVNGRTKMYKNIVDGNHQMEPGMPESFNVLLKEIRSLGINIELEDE
Sequence (P0A8T7 whole entry): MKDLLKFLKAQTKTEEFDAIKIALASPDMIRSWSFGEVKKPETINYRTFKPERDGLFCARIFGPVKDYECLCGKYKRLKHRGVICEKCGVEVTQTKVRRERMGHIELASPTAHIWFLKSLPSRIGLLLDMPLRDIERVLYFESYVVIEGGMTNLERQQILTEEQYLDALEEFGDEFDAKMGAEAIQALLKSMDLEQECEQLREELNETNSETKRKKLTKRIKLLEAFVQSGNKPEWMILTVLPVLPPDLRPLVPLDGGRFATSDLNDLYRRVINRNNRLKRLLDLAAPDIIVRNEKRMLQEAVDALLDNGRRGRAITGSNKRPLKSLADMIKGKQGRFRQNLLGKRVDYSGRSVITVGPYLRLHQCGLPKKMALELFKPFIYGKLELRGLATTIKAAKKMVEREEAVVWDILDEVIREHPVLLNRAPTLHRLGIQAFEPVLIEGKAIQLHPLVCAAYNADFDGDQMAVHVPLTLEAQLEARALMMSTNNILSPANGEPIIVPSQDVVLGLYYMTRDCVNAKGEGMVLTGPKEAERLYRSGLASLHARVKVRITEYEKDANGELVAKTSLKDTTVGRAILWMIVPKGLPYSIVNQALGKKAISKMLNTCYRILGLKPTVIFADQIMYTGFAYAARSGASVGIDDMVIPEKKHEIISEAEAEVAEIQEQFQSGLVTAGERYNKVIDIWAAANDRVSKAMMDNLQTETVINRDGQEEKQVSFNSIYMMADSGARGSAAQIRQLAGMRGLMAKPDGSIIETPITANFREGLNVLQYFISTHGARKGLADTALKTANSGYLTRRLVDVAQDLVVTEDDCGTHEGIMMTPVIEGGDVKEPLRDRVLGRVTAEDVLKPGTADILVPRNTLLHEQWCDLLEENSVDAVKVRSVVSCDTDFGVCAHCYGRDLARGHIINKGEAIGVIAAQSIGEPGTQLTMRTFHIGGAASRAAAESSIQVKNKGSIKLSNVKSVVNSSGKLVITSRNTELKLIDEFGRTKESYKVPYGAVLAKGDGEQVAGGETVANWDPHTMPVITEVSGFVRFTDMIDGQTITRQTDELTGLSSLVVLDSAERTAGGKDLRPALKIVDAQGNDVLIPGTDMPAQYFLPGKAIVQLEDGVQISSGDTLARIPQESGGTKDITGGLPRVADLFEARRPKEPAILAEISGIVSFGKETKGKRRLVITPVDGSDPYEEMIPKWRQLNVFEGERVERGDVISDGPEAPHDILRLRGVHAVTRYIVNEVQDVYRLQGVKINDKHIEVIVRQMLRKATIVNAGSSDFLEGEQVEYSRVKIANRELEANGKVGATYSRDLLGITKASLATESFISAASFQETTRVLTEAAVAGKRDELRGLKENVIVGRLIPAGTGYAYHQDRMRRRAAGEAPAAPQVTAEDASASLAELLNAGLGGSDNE
Sequence (P0A7Z4 whole entry): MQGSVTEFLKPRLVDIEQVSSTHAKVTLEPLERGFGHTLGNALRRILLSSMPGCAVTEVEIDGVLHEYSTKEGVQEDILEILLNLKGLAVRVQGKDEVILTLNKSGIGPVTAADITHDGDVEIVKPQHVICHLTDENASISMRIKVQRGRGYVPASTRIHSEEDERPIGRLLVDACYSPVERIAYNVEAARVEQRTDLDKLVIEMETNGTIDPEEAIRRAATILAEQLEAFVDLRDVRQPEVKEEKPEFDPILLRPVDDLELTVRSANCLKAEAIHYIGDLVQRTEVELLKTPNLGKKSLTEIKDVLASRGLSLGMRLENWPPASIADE
Sequence (P0A800 2-91 partner limits assumed): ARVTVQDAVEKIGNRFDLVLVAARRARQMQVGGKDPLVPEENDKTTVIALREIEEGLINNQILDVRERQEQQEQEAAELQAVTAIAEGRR
Sequence (P00579 whole entry partner): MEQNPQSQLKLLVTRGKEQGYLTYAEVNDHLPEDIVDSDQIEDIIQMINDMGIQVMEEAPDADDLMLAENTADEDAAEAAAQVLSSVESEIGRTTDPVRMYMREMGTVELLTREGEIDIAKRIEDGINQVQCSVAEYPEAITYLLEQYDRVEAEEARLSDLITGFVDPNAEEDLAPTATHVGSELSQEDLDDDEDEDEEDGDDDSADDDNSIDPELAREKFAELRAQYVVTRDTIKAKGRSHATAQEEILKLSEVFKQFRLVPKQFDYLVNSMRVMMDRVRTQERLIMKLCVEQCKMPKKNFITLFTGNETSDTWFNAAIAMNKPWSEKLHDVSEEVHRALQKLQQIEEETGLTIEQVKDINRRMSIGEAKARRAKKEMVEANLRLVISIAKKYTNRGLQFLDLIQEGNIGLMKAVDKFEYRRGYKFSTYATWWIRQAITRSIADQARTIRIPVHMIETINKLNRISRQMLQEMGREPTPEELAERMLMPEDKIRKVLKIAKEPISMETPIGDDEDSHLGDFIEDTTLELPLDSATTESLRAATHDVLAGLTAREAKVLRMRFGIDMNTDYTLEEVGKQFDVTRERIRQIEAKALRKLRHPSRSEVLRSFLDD
Assay Procedure: *NO-dependent RNAP inactivation assay (in vitro transcription)
Type: biochemical
Condition Label: RNAP + ANSA treated with low dose of *NO
Measured Parameter: *NO-dependent inactivation of RNAP (transcription) in the presence of ANSA

INSERT INTO results (smiles, result) VALUES
  ('CN(C)S(=O)(=O)c1cccc2c(N)cccc12', 'partial negative effect'),
  ('Nc1cccc2c(S(=O)(=O)N3CCOCC3)cccc12', 'partial negative effect');
